- MEASUREMENT_TARGET: ITK (Homo sapiens)
- Sequence (Q08881 1-620): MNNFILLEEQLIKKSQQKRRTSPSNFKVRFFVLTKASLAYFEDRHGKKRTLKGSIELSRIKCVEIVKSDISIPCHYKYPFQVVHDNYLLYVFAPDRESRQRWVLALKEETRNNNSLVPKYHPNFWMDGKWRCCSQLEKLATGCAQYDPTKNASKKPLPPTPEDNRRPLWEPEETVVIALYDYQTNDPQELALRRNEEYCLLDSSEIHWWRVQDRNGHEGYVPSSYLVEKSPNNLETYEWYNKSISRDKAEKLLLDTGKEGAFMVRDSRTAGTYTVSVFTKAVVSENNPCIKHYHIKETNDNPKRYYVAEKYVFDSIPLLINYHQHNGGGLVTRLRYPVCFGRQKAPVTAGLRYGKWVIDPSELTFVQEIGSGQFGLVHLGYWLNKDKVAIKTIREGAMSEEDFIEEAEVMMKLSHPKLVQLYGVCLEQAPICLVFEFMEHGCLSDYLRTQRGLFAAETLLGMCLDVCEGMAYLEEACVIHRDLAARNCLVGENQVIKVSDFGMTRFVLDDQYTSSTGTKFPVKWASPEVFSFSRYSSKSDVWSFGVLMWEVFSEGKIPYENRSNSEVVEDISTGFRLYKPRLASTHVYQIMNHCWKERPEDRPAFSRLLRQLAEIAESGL
- ASSAY_REMARKS: Inhibition of a panel of kinases, in vitro HotSpot kinase assay: ITK
- Type: biochemical
- ASSAY_SETUP: D-compounds panel data; 1 μM ATP
MEASUREMENT_NAME: IC50

COMPOUND	MEASUREMENT_TARGET	IC50
Cn1cc(Nc2nc(N3CCC(NC(=O)c4ccc(C5CC5)cc4)C(O)C3)cnc2C(N)=O)cn1 (single isomer, unassigned) [Example D-28]	ITK (Homo sapiens)	1000 to 10000 nM
C[C@@H]1[C@H](NC(=O)c2ccc(C3CC3)cc2F)CCCN1c1cnc(C(N)=O)c(Nc2cnn(C)c2)n1	ITK (Homo sapiens)	100 to 1000 nM
Cc1cc(Nc2nc(N3C[C@@H](NC(=O)N(C)C)CC[C@@H]3C)cnc2C(N)=O)sn1	ITK (Homo sapiens)	> 10000 nM
C[C@@H]1[C@H](NC(=O)c2ccc(N(C)C)cc2)CCCN1c1cnc(C(N)=O)c(Nc2ccc(C3(C)CCN(C4CCCC4)CC3)cc2)n1	ITK (Homo sapiens)	10 to 100 nM
Cc1ncc(Nc2nc(N3CCC[C@@H](NC(=O)c4ccc(C5CC5)cc4)[C@H]3C)cnc2C(N)=O)s1	ITK (Homo sapiens)	100 to 1000 nM

[ask] Which IC50 value is on record for CC(C)c1ccc(C(=O)N[C@@H]2CCCN(c3cnc(C(N)=O)c(Nc4cnn(C)c4)n3)[C@@H]2C)cc1 ?
[reply] 100 to 1000 nM
